experiment: Stability of analytes in rat plasma under various storage conditions; assay type: in vitro ADME; details: rat plasma, three freeze–thaw cycles at −20 °C, high QC spiked concentration
readout.type: Stability Three Freeze-Thaw (% RE)

CC1CCC2(C(=O)OC3OC(CO)C(O)C(O)C3O)CCC3(C)C(=CCC4C5(C)CCC(O)C(C)(C)C5CCC43C)C2C1(C)O (stereo not shown) ... 2.74

(a) C=C1[C@H]2C3=CC[C@@H]4[C@@]5(C)C[C@@H](O)[C@@H](O)C(C)(C)[C@@H]5CC[C@@]4(C)[C@]3(C)CC[C@@]2(C(=O)O[C@@H]2O[C@H](CO)[C@@H](O)[C@H](O)[C@H]2O)CC[C@H]1C [VI, alpinoside]
(b) C[C@@H]1CC[C@]2(C(=O)O[C@@H]3O[C@H](CO)[C@@H](O)[C@H](O)[C@H]3O)CC[C@]3(C)C(=CC[C@@H]4[C@@]5(C)C[C@@H](O)[C@H](O)C(C)(C)[C@@H]5CC[C@]43C)[C@@H]2[C@]1(C)O
When the recorded Stability Three Freeze-Thaw values are compared, which is smaller: that of a or that of b ? Mark your answer with the label of the selected entry. a
(a: −1.64 % RE, b: 2.07 % RE)
